The following compounds are listed with their measured IC50 values.
tested target: Transient receptor potential cation channel subfamily M member 8 (Homo sapiens, UniProt Q7Z2W7)
Sequence (Q7Z2W7 whole entry): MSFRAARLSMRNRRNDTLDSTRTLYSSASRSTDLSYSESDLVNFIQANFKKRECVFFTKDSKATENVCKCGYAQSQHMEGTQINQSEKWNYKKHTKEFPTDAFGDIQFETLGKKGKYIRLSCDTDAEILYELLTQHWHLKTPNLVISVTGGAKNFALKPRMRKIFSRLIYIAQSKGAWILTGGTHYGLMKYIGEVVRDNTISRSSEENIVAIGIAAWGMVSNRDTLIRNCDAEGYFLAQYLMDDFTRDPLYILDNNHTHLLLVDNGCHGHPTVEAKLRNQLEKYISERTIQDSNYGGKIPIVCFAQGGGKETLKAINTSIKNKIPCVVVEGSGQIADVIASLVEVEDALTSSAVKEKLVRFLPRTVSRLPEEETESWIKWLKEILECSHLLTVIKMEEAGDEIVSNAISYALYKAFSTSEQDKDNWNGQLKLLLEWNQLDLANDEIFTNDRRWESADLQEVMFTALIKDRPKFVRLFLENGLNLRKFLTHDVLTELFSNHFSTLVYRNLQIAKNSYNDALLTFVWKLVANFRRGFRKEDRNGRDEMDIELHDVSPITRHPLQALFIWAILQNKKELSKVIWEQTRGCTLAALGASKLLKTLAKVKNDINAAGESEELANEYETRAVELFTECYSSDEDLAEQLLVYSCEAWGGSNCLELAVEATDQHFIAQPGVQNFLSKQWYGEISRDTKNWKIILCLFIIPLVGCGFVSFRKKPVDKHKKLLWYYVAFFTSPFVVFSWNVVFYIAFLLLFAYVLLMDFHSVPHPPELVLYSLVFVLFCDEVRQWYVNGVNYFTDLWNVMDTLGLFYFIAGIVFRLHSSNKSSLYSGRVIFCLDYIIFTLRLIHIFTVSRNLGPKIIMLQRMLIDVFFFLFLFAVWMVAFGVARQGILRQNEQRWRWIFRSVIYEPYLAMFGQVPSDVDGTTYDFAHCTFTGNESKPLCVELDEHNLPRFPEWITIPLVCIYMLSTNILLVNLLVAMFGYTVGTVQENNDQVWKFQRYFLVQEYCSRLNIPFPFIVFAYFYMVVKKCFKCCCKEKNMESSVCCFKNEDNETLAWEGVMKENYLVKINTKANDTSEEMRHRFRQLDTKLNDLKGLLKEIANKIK

# chemical structure, IC50 / µM
data = [
    ("N#Cc1ccc(OCC2(O)CN(S(=O)(=O)c3ccc(Cl)cc3Cl)C2)cc1F", 9.58),
    ("N#Cc1ccc(OCC2(O)CCN(S(=O)(=O)c3ccc(Cl)cc3Cl)CC2)cc1", 4.8),
]

###

protocol summary: Clearance in human liver microsomes
Type: ADME
condition notes: read-out: CLH

# chemical structure, microsomal CLint
records = [
    ("N#Cc1ccc(OCC2(O)CN(S(=O)(=O)c3ccc(Cl)cc3Cl)C2)cc1F", "< 8.1 µL/min/mg"),
]
